System: NCI-H441
Test Protocol: relative viability (nuclei count vs DMSO), 5 days (fraction); higher = more cells survive
Condition Parameters: first compound 0.01 µM
Quick reference: relative viability of the listed items.
# output: bare number, no unit

Compound | Assayed System | relative viability
CC(C)Oc1cc(Nc2nc(N[C@@H](C)c3ccc(F)cn3)ncc2Cl)n[nH]1 [AZ23] + CC1(C)CCC(c2ccc(Cl)cc2)=C(CN2CCN(c3ccc(C(=O)NS(=O)(=O)c4ccc(N[C@H](CCN5CCOCC5)CSc5ccccc5)c(S(=O)(=O)C(F)(F)F)c4)cc3)CC2)C1 [Navitoclax] (partner 0.5 µM) | NCI-H441 | 0.518

Shift focus to the following entry.
IN: So what's the measured relative viability for this one? CC(C)Oc1cc(Nc2nc(N[C@@H](C)c3ccc(F)cn3)ncc2Cl)n[nH]1 [AZ23] + CC(=O)Nc1cccc(-n2c(=O)n(C3CC3)c(=O)c3c(Nc4ccc(I)cc4F)n(C)c(=O)c(C)c32)c1 [Trametinib] (partner 0.02 µM)
OUT: 0.504

###

System: NCI-H1650
Test Protocol: relative viability (nuclei count vs DMSO), 5 days (fraction); higher = more cells survive
Condition Parameters: first compound 8 µM
Reported Property: relative viability
// no unit, no text: just the number

Some entries whose results are on file:
Molecule | Reported Measurement
CCCCCCCCCCCC1=C(O)C(=O)C=C(O)C1=O [Embelin] + CC(=O)c1c(C)c2cnc(Nc3ccc(N4CCNCC4)cn3)nc2n(C2CCCC2)c1=O [Palbociclib] (partner 0.5 µM) | 0.354
CCCCCCCCCCCC1=C(O)C(=O)C=C(O)C1=O [Embelin] + Cc1nc(Nc2ncc(C(=O)Nc3c(C)cccc3Cl)s2)cc(N2CCN(CCO)CC2)n1 [Dasatinib] (partner 0.075 µM) | 0.315

// next entry
IN: Entry under review: CCCCCCCCCCCC1=C(O)C(=O)C=C(O)C1=O [Embelin] + Cc1cc(Nc2cc(N3CCN(C)CC3)nc(Sc3ccc(NC(=O)C4CC4)cc3)n2)n[nH]1 [Tozasertib] (partner 0.1 µM) . Reported relative viability?
OUT: 0.462

###

We begin with a simple list: items and their reported relative viability.
Tested on: Calu-6
Test Protocol: relative viability (nuclei count vs DMSO), 5 days (fraction); higher = more cells survive
Condition Parameters: first compound 0.04 µM
I'd appreciate a reply containing only the number, no unit.

Molecule | Reported Measurement
C[C@@H]1CN(CC(=O)Nc2ccc3c(c2)Cc2cccc(-c4cc(=O)cc(N5CCOCC5)o4)c2S3)C[C@H](C)O1 + CS(=O)(=O)CCNCc1ccc(-c2ccc3ncnc(Nc4ccc(OCc5cccc(F)c5)c(Cl)c4)c3c2)o1 [Lapatinib] (partner 2 µM) | 1.09

IN: Hello, I am looking for reported relative viability with Calu-6 for COc1cc(N2CCC(C(N)=O)CC2)ccc1Nc1nc(N)c(Cl)c(Nc2ccccc2S(=O)(=O)C(C)C)n1 [HG-5-88-01] + CS(=O)(=O)CCNCc1ccc(-c2ccc3ncnc(Nc4ccc(OCc5cccc(F)c5)c(Cl)c4)c3c2)o1 [Lapatinib] (partner 2 µM) . Could you help?
OUT: 1.11

###

Test system: NCI-H358
Test Protocol: relative viability (nuclei count vs DMSO), 5 days (fraction); higher = more cells survive
Condition Parameters: first compound 0.08 µM
relative viability values, listed per item
Please reply with the value in numeric form only.

IN: What relative viability value was documented for this molecule, CCCCCCCCCCCC1=C(O)C(=O)C=C(O)C1=O [Embelin] + C[C@@H](Oc1cc(-c2cnn(C3CCNCC3)c2)cnc1N)c1c(Cl)ccc(F)c1Cl [Crizotinib] (partner 1 µM) ?
OUT: 0.635

###

Test system: LXF-289
Test Protocol: relative viability (nuclei count vs DMSO), 5 days (fraction); higher = more cells survive
Condition Parameters: first compound 0.8 µM
Labelling: relative viability reported below 0.8 becomes Condition met; at or above becomes Condition not met.

Compound | Category Label
CCCCCCCCCCCC1=C(O)C(=O)C=C(O)C1=O [Embelin] + Nc1nc2[nH]cc(CCc3ccc(C(=O)N[C@@H](CCC(=O)O)C(=O)O)cc3)c2c(=O)[nH]1 [Pemetrexed] (partner 0.2 µM) | Condition not met
CCCCCCCCCCCC1=C(O)C(=O)C=C(O)C1=O [Embelin] + CC1(C)CCC(c2ccc(Cl)cc2)=C(CN2CCN(c3ccc(C(=O)NS(=O)(=O)c4ccc(N[C@H](CCN5CCOCC5)CSc5ccccc5)c(S(=O)(=O)C(F)(F)F)c4)cc3)CC2)C1 [Navitoclax] (partner 0.5 µM) | Condition not met
CCCCCCCCCCCC1=C(O)C(=O)C=C(O)C1=O [Embelin] + COc1cccc2cc(-c3nc([C@H]4CC[C@H](C(=O)O)CC4)n4ncnc(N)c34)[nH]c12 [OSI-027] (partner 0.5 µM) | Condition not met
CCCCCCCCCCCC1=C(O)C(=O)C=C(O)C1=O [Embelin] + Cc1nc(Nc2ncc(C(=O)Nc3c(C)cccc3Cl)s2)cc(N2CCN(CCO)CC2)n1 [Dasatinib] (partner 0.075 µM) | Condition met
CCCCCCCCCCCC1=C(O)C(=O)C=C(O)C1=O [Embelin] + CC(=O)c1c(C)c2cnc(Nc3ccc(N4CCNCC4)cn3)nc2n(C2CCCC2)c1=O [Palbociclib] (partner 0.5 µM) | Condition met

IN: Regarding CCCCCCCCCCCC1=C(O)C(=O)C=C(O)C1=O [Embelin] + C[C@]1(O)C[C@@H](c2nc(-c3ccc4ccc(-c5ccccc5)nc4c3)c3c(N)nccn32)C1 [Linsitinib] (partner 1 µM) , kindly confirm whether its relative viability is beneath 0.8.
OUT: Condition not met

IN: Report whether reported relative viability is lower than 0.8 (strictly) for CCCCCCCCCCCC1=C(O)C(=O)C=C(O)C1=O [Embelin] + N=C(N)NC(=N)NCCc1ccccc1 [Phenformin] (partner 250 µM)
OUT: Condition met

###

# key: entry, value: relative viability
Test system: RERF-LC-KJ
Test Protocol: relative viability (nuclei count vs DMSO), 5 days (fraction); higher = more cells survive
Condition Parameters: first compound 0.1265 µM
Please give only the number in your answer, with no unit.

In the examples that follow, each entry is paired with its recorded relative viability.
Molecule | Reported Measurement
Clc1ccc(Nc2nnc(Cc3ccncc3)c3ccccc23)cc1 [Vatalanib] + Nc1nc2[nH]cc(CCc3ccc(C(=O)N[C@@H](CCC(=O)O)C(=O)O)cc3)c2c(=O)[nH]1 [Pemetrexed] (partner 0.2 µM) | 0.476
C[C@@H]1CN(CC(=O)Nc2ccc3c(c2)Cc2cccc(-c4cc(=O)cc(N5CCOCC5)o4)c2S3)C[C@H](C)O1 + C[C@]1(O)C[C@@H](c2nc(-c3ccc4ccc(-c5ccccc5)nc4c3)c3c(N)nccn32)C1 [Linsitinib] (partner 1 µM) | 0.907
COc1cc(N2CCC(C(N)=O)CC2)ccc1Nc1nc(N)c(Cl)c(Nc2ccccc2S(=O)(=O)C(C)C)n1 [HG-5-88-01] + CC1(C)CCC(c2ccc(Cl)cc2)=C(CN2CCN(c3ccc(C(=O)NS(=O)(=O)c4ccc(N[C@H](CCN5CCOCC5)CSc5ccccc5)c(S(=O)(=O)C(F)(F)F)c4)cc3)CC2)C1 [Navitoclax] (partner 0.5 µM) | 0.846

Turning now to a further record.
IN: # lookup: relative viability of COc1cc(N2CCC(C(N)=O)CC2)ccc1Nc1nc(N)c(Cl)c(Nc2ccccc2S(=O)(=O)C(C)C)n1 [HG-5-88-01] + Cc1nc(NC(=O)N2CCC[C@H]2C(N)=O)sc1-c1ccnc(C(C)(C)C(F)(F)F)c1 [Alpelisib] (partner 2 µM)
OUT: 0.675

###

Tested on: NCI-H1395
Test Protocol: relative viability (nuclei count vs DMSO), 5 days (fraction); higher = more cells survive
Condition Parameters: first compound 0.04 µM
Reported Property: relative viability
Enter the number alone.

IN: Need relative viability, item COc1cc(N2CCC(C(N)=O)CC2)ccc1Nc1nc(N)c(Cl)c(Nc2ccccc2S(=O)(=O)C(C)C)n1 [HG-5-88-01] + O=C(CCCCCCC(=O)Nc1ccccc1)NO [Vorinostat] (partner 1 µM)
OUT: 0.69

IN: Quick one: relative viability for Clc1ccc(Nc2nnc(Cc3ccncc3)c3ccccc23)cc1 [Vatalanib] + CS(=O)(=O)CCNCc1ccc(-c2ccc3ncnc(Nc4ccc(OCc5cccc(F)c5)c(Cl)c4)c3c2)o1 [Lapatinib] (partner 2 µM) ?
OUT: 1.16

IN: // returns reported relative viability for input C[C@@H]1CN(CC(=O)Nc2ccc3c(c2)Cc2cccc(-c4cc(=O)cc(N5CCOCC5)o4)c2S3)C[C@H](C)O1 + N=C(N)NC(=N)NCCc1ccccc1 [Phenformin] (partner 250 µM)
OUT: 0.495

IN: Can you look up the measured relative viability of Clc1ccc(Nc2nnc(Cc3ccncc3)c3ccccc23)cc1 [Vatalanib] + CCNC(=O)c1noc(-c2cc(C(C)C)c(O)cc2O)c1-c1ccc(CN2CCOCC2)cc1 [Luminespib] (partner 0.01 µM) for me?
OUT: 0.668

IN: Reported relative viability for Clc1ccc(Nc2nnc(Cc3ccncc3)c3ccccc23)cc1 [Vatalanib] + Cc1cc(Nc2cc(N3CCN(C)CC3)nc(Sc3ccc(NC(=O)C4CC4)cc3)n2)n[nH]1 [Tozasertib] (partner 0.1 µM) : what is it?
OUT: 0.734

IN: Query (compound): C[C@@H]1CN(CC(=O)Nc2ccc3c(c2)Cc2cccc(-c4cc(=O)cc(N5CCOCC5)o4)c2S3)C[C@H](C)O1 + Cc1cc(Nc2cc(N3CCN(C)CC3)nc(Sc3ccc(NC(=O)C4CC4)cc3)n2)n[nH]1 [Tozasertib] (partner 0.1 µM) ; field requested: relative viability
OUT: 0.696

IN: Which value of relative viability has been reported for COc1cc(N2CCC(C(N)=O)CC2)ccc1Nc1nc(N)c(Cl)c(Nc2ccccc2S(=O)(=O)C(C)C)n1 [HG-5-88-01] + CC(=O)c1c(C)c2cnc(Nc3ccc(N4CCNCC4)cn3)nc2n(C2CCCC2)c1=O [Palbociclib] (partner 0.5 µM) in the records?
OUT: 0.593
